Data provenance: PubChem BioAssay AID2247

- system-tested: Short transient receptor potential channel 4 (Mus musculus) (UniProt Q9QUQ5)
- Sequence (Q9QUQ5 whole entry, looked up): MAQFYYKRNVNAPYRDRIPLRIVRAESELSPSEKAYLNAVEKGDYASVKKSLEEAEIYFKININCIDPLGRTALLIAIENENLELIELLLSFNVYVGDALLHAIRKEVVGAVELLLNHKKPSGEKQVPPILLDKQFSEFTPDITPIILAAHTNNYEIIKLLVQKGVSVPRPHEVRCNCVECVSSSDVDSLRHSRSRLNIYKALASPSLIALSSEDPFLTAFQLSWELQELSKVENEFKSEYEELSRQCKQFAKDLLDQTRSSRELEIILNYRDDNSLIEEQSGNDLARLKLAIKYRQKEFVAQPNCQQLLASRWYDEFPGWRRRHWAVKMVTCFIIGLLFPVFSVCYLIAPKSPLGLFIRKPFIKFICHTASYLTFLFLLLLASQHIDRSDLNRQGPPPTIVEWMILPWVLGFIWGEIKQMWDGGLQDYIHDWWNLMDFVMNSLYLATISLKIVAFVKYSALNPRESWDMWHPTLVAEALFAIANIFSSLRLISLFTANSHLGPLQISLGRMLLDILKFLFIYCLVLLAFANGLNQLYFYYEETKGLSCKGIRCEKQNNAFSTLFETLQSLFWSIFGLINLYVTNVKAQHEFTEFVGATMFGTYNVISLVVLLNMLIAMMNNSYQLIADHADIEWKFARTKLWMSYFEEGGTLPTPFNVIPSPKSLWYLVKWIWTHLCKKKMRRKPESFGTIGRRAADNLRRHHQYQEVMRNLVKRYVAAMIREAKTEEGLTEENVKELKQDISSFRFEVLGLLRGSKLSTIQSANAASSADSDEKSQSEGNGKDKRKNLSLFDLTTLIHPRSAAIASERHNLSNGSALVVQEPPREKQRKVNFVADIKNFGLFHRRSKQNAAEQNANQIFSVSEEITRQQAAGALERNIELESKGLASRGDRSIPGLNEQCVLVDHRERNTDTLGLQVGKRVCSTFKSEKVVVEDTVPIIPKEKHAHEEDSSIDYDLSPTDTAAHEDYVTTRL
- procedure-details: inhibitors of mouse TRPC4 channel, primary screen, Fluo4 calcium, HEK293 TRPC4beta/mu-opioid cells (AID 2247)
- assay-conditions: DAMGO-evoked Fluo4 calcium flux, at 10 µM; active compounds read low
Among all 300,000 compounds or so, about 1,200 (0.4%) were called active. The list comes from a sample in which actives are over-represented; it also holds close analogues and randomly drawn compounds.

>  <compound>
Oc1ccc(/C=N/Nc2nc(-c3ccccc3F)nc3ccccc23)c(O)c1

>  <B-score>
inactive

$$$$
>  <compound>
CCC1CCCCN1S(=O)(=O)Cc1ccccc1Cl (configuration not stated)

>  <B-score>
inactive

$$$$
>  <compound>
Cc1ccccc1OCC(=O)NNC(=O)c1ccc(-n2cncn2)c([N+](=O)[O-])c1

>  <B-score>
inactive

$$$$
>  <compound>
O/N=C(\C[n+]1ccccc1)c1ccc(Br)cc1

>  <B-score>
inactive

$$$$
>  <compound>
O=C(NNC(=S)NCc1ccccc1)c1ccc(OC(F)F)cc1

>  <B-score>
inactive

$$$$
>  <compound>
NS(=O)(=O)c1ccc(NC(=S)Nc2ccc(Br)c(Cl)c2)cc1

>  <B-score>
inactive

$$$$
>  <compound>
O=C(OCC(=O)N1CCCC1=O)c1cc(S(=O)(=O)N2CCOCC2)ccc1Cl

>  <B-score>
inactive

$$$$
>  <compound>
CC1(C)S[C@@H]2[C@H](NC(=O)COc3ccccc3)C(=O)N2C1C(=O)OCc1ccccc1 (some centres not stated)

>  <B-score>
inactive

$$$$
>  <compound>
COc1ccc(CN2CCCC(CNC(=O)c3ccc(F)cc3)C2)cc1OC (configuration not stated)

>  <B-score>
-6 (active)

$$$$
>  <compound>
Cc1ccc(S(=O)(=O)CC(=O)Nc2sc(C)c(C)c2C(N)=O)cc1

>  <B-score>
inactive

$$$$
>  <compound>
CC(C)Oc1ccc(CCC(=O)NNC(=S)NCc2ccccc2)cc1

>  <B-score>
-6 (active)

$$$$
>  <compound>
N#Cc1c(NC(=O)C2CC(Cl)=CCC2C(=O)O)sc2c1CCCCC2 (configuration not stated)

>  <B-score>
-6 (active)

$$$$
>  <compound>
CCCC(=O)C1CCN(Cc2ccccc2)CC1

>  <B-score>
inactive

$$$$
>  <compound>
Cc1cc(N/N=C/c2ccccc2F)c2ccccc2n1

>  <B-score>
-8 (active)

$$$$
>  <compound>
COc1ccc(Nc2cc(Sc3ccc(OC)cc3)ncn2)cc1

>  <B-score>
inactive

$$$$
>  <compound>
FC(F)Oc1ccccc1NC(=S)Nc1cccc(Cl)c1Cl

>  <B-score>
-7 (active)

$$$$
>  <compound>
O=C(Cn1ncc2c3ccccc3n(Cc3ccccc3)c2c1=O)NCc1ccccn1

>  <B-score>
inactive

$$$$
>  <compound>
COc1ccc(C(=O)C2CCCN(Cc3ccc4nonc4c3)C2)c(C)c1 (configuration not stated)

>  <B-score>
inactive

$$$$
>  <compound>
COc1cc(-c2nnc(NC(=O)C3=COCCO3)o2)cc(OC)c1OC

>  <B-score>
inactive

$$$$
>  <compound>
Cc1c(Cl)c([N+](=O)[O-])nn1CC(=O)NCCCN1CCOCC1

>  <B-score>
inactive

$$$$
>  <compound>
O=C(COC(=O)/C=C/c1cccc(Cl)c1)NCCc1ccccc1

>  <B-score>
inactive

$$$$
>  <compound>
CCCCCn1c(=O)[nH]c2cc(C(=O)NCCCN3CCCCC3C)ccc2c1=O (configuration not stated)

>  <B-score>
inactive

$$$$
>  <compound>
CCCc1c(C(=O)N/N=C(\C)CCc2ccc(OC)cc2)nnn1-c1nonc1N

>  <B-score>
inactive

$$$$
>  <compound>
Cc1sc(NC(=O)C2C3CCC(O3)C2C(=O)O)c(C(=O)OC(C)C)c1-c1ccc(Cl)cc1 (configuration not stated)

>  <B-score>
inactive

$$$$
>  <compound>
COc1ccccc1NC(=S)NC(=O)C(C)C

>  <B-score>
inactive

$$$$
>  <compound>
CC(=O)Nc1ccc(NC(=O)COc2ccccc2C(=O)Nc2cccc(Cl)c2Cl)cc1

>  <B-score>
inactive

$$$$
>  <compound>
Cc1cc(C)n2nc(C(=O)OCC(=O)N(CCC#N)c3ccc(F)cc3)nc2n1

>  <B-score>
inactive

$$$$
